Biological target: Beta-adrenergic receptor kinase 1 (Homo sapiens) (UniProt P25098)
Sequence (P25098 whole entry, looked up): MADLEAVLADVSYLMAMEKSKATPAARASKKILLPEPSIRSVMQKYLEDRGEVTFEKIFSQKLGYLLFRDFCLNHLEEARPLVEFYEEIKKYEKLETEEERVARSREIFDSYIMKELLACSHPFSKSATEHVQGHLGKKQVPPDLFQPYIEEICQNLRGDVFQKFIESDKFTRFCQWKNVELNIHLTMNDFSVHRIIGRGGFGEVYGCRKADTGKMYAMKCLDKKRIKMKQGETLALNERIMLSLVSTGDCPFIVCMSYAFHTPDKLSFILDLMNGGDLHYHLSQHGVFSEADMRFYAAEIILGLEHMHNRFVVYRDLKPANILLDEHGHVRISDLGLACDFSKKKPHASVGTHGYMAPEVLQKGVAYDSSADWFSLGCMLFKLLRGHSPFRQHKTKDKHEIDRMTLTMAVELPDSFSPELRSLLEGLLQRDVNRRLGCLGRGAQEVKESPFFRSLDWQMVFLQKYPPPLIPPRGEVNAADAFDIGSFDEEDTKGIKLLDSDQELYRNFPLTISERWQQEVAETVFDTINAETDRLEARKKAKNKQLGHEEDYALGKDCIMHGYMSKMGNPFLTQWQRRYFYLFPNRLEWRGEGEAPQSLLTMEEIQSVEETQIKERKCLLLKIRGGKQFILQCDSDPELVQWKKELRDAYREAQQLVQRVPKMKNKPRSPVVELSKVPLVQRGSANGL
Experiment: RNA aptamer-GRK2 binding blockers – biochemical, cherry pick 1, bead flow cytometry, confirmation (AID 504451);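 also: negative values mostly reflect intrinsic compound fluorescence rather than true enhancement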
Details: bead-bound GRK2, FAM-aptamer displacement, at 10 µM, hits give high values
Among all 2,000 compounds or so, about 80 (4%) were called active. The list is a sample of the results.
readout-kind: aptamer displacement

Worked set:
>  <compound>
COC(=O)c1ccc(C)c(NC(=O)C2CC(=O)N(C3CCCC(C)C3C)C2)c1 (stereo unspecified)

>  <measurement-target>
Beta-adrenergic receptor kinase 1 (Homo sapiens) (UniProt P25098)

>  <aptamer displacement>
-1.41% (inactive)

$$$$
>  <compound>
CC(=O)c1ccc(OCC(O)CN2CCN(S(=O)(=O)c3cccc(Br)c3)CC2)cc1 (stereo unspecified)

>  <measurement-target>
Beta-adrenergic receptor kinase 1 (Homo sapiens) (UniProt P25098)

>  <aptamer displacement>
-3.98% (inactive)

$$$$
>  <compound>
Cc1cc2cc(CNC(=O)c3cccs3)ccc2[nH]1

>  <measurement-target>
Beta-adrenergic receptor kinase 1 (Homo sapiens) (UniProt P25098)

>  <aptamer displacement>
11.7% (inactive)

$$$$
>  <compound>
Cc1csc(=O)n1CC(=O)OCC(=O)N(CC(C)C)c1c(N)n(Cc2ccccc2)c(=O)[nH]c1=O

>  <measurement-target>
Beta-adrenergic receptor kinase 1 (Homo sapiens) (UniProt P25098)

>  <aptamer displacement>
-4.19% (inactive)

$$$$
>  <compound>
CSc1ccc(/C=C2\NC(=O)NC2=O)cc1

>  <measurement-target>
Beta-adrenergic receptor kinase 1 (Homo sapiens) (UniProt P25098)

>  <aptamer displacement>
-11.5% (inactive)

$$$$
>  <compound>
CCOc1ccccc1C(=O)NCc1ccco1

>  <measurement-target>
Beta-adrenergic receptor kinase 1 (Homo sapiens) (UniProt P25098)

>  <aptamer displacement>
-1.88% (inactive)

$$$$
>  <compound>
CCOC(=O)C1CCCN(Cc2nc(N)nc(Nc3ccc(C)cc3)n2)C1 (stereo unspecified)

>  <measurement-target>
Beta-adrenergic receptor kinase 1 (Homo sapiens) (UniProt P25098)

>  <aptamer displacement>
0.86% (inactive)

$$$$
>  <compound>
CC(NC(=O)C1CCCN(S(=O)(=O)c2ccc(-n3cnnn3)cc2)C1)c1ccc(F)cc1 (stereo unspecified)

>  <measurement-target>
Beta-adrenergic receptor kinase 1 (Homo sapiens) (UniProt P25098)

>  <aptamer displacement>
1.56% (inactive)

$$$$

Could you share what aptamer displacement was measured for Cc1nc(C(=O)NCc2ccccc2)sc1C1(C)CC(c2cccnc2)=NO1 (stereo unspecified) , tested on Beta-adrenergic receptor kinase 1 (Homo sapiens) (UniProt P25098)?
-1.29% (inactive)

Here is the next compound: CCOC(=O)c1sc2nc(CSc3ccccc3)[nH]c(=O)c2c1C
-0.46% (inactive)

Here is the next compound: CN/C(=C\[N+](=O)[O-])NCCSCc1csc(CN(C)C)n1
1.33% (inactive)

* * *

Biological target: Beta-adrenergic receptor kinase 1 (Homo sapiens)
Experiment: RNA aptamer-GRK2 binding blockers – biochemical, cherry pick 1, bead flow cytometry, confirmation (AID 504451)
Settings: bead-bound GRK2, FAM-aptamer displacement, at 10 µM, hits give high values
About 80 (4%) of roughly 2,000 compounds were called active. These entries were drawn from the full list.
readout-kind: aptamer displacement (%)
Only the number, expressed in %, is required.

Worked set:
>  <compound>
CC(C)CN(C(=O)c1cccc(S(=O)(=O)N2CCCCC2)c1)C1CCS(=O)(=O)C1 (stereo not given)

>  <quantity-unit>
%

>  <measured-value>
0.16

$$$$
>  <compound>
O=C(Nc1nnc(-c2ccccc2)o1)c1cccc(S(=O)(=O)N2CCOCC2)c1

>  <quantity-unit>
%

>  <measured-value>
-3.8

$$$$
>  <compound>
O=C(NCc1ccccc1Cl)c1ccc2c(=O)n(CC3CCCO3)c(=S)[nH]c2c1 (stereo not given)

>  <quantity-unit>
%

>  <measured-value>
-1.07

$$$$
>  <compound>
O=c1[nH]c(SCc2ccccc2)nnc1-c1ccccc1

>  <quantity-unit>
%

>  <measured-value>
-4.45

$$$$

Could you now consider this next compound?
Field request: aptamer displacement | item: COc1ccc(C(=O)NCCNc2ccc([N+](=O)[O-])cn2)cc1
-0.48

* * *

Listing of entries alongside the reported aptamer displacement.
Biological target: Beta-adrenergic receptor kinase 1 (Homo sapiens)
Assay: RNA aptamer-GRK2 binding blockers – biochemical, cherry pick 1, bead flow cytometry, confirmation (AID 504451)
Settings: bead-bound GRK2, FAM-aptamer displacement, at 10 µM, hits give high values
The whole screen tested about 2,000 compounds, of which about 80 (4%) were called active. A selection follows.

Worked set:
>  <compound>
O=C(Oc1ccc(Br)cc1)c1cccnc1

>  <measured-value>
-1.31% (inactive)

$$$$
>  <compound>
O=C(c1ccc(Cl)cc1)c1ccc(OCC(O)CN2CCCCC2)cc1 (centres undefined)

>  <measured-value>
-0.78% (inactive)

$$$$
>  <compound>
COc1ccc(Nc2nc(-c3cccnc3)nc3ccccc23)cn1

>  <measured-value>
4.02% (inactive)

$$$$

Field request: aptamer displacement | item: Cc1cccc(NC(=O)C2CCCN(C(=O)NCc3ccccc3)C2)c1C (centres undefined)
-2.02% (inactive)

* * *

Biological target: Beta-adrenergic receptor kinase 1 (Homo sapiens) (UniProt P25098)
Assay: RNA aptamer-GRK2 binding blockers – biochemical, cherry pick 1, bead flow cytometry, confirmation (AID 504451);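 also: negative values mostly reflect intrinsic compound fluorescence rather than true enhancement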
Details: bead-bound GRK2, FAM-aptamer displacement, at 10 µM
About 80 (4%) of roughly 2,000 compounds were called active.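 How the source made its calls: active means aptamer displacement above 40%, near three times the noise of non-fluorescent compounds, on plates passing quality checks; inactive means the rest.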 Not all results are given here.
Please reply with one of these outcomes: 1 = active, 0 = inactive

Query: recorded result category for CCOCCCNC(=O)C(NC(=O)CNC(=O)c1ccccc1)c1ccc(OC)cc1 (stereo not given) in this test
0

Here is the next compound: CCCc1nc2ccccc2c(=O)n1NC(=O)c1c(O)c2ccccc2[nH]c1=O
0

* * *

Molecular target: Beta-adrenergic receptor kinase 1 (Homo sapiens) (UniProt P25098)
Experiment: RNA aptamer-GRK2 binding blockers – biochemical, cherry pick 1, bead flow cytometry, confirmation (AID 504451);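 also: negative values mostly reflect intrinsic compound fluorescence rather than true enhancement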
Conditions: bead-bound GRK2, FAM-aptamer displacement, at 10 µM
The whole screen tested about 2,000 compounds, of which about 80 (4%) were called active.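 Rule for the calls: active = aptamer displacement above 40%, near three times the noise of non-fluorescent compounds, on plates passing quality checks; inactive = the rest.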 These entries were drawn from the full list.
Please reply with one of these outcomes: active, inactive

Recorded results for 3 compounds are shown here.
>  <compound>
O=C(Nc1ccc(-c2nnc(-c3ccccc3)o2)cc1)c1ccc(Br)o1

>  <classification>
inactive

$$$$
>  <compound>
O=C(COc1ccccc1)NCCc1nc2ccccc2[nH]1

>  <classification>
inactive

$$$$
>  <compound>
Cc1ccc(-c2nn(-c3ccccc3)cc2/C=C2\SC(=S)N(CCCCCC(=O)O)C2=O)o1

>  <classification>
inactive

$$$$

Query: recorded result category for C/C(=N\Nc1nc2ccccc2[nH]1)c1cccs1 in this test
inactive

Here is the next compound: CNS(=O)(=O)c1cccc(C(=O)NCC2CCCCC2)c1
inactive

Here is the next compound: O=C1C2N=NN(CC(=O)N3N=C(c4cccc5ccccc45)CC3c3ccccc3)C2C(=O)N1c1ccccc1 (stereo unspecified)
inactive

Here is the next compound: COc1ccc(-n2nc(C(=O)NCC(=O)N3CCCCCC3)c3ccccc3c2=O)cc1Cl
inactive

Here is the next compound: CN(CC(=O)Nc1ccc(N2CCOCC2)cc1)CC(=O)Nc1ccccc1[N+](=O)[O-]
inactive

Here is the next compound: CCN1/C(=C\c2ccc3ccccc3[n+]2CC)Sc2cc(C)ccc21
active

* * *

Molecular target: Beta-adrenergic receptor kinase 1 (Homo sapiens)
Assay: RNA aptamer-GRK2 binding blockers – biochemical, cherry pick 1, bead flow cytometry, confirmation (AID 504451);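 also: negative values mostly reflect intrinsic compound fluorescence rather than true enhancement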
Conditions: bead-bound GRK2, FAM-aptamer displacement, at 10 µM, hits give high values
Among all 2,000 compounds or so, about 80 (4%) were called active. These entries were drawn from the full list.
Listing of entries alongside the reported aptamer displacement.

>  <molecule>
O=C(COC(=O)c1ccc(F)cc1F)Nc1ncccn1

>  <measured-value>
39.1% (inactive)

$$$$
>  <molecule>
COc1ccc(Nc2cc(Sc3ccc(OC)cc3)ncn2)cc1

>  <measured-value>
-1.93% (inactive)

$$$$
>  <molecule>
C=C(C)C(=O)Nc1cccc(C2=NOC3(C2)C[C@H](C(N)=O)N(C(=O)C(c2ccccc2)c2ccccc2)C3)c1 (stereo partly drawn)

>  <measured-value>
80.5% (active)

$$$$
>  <molecule>
O=C(CCS(=O)(=O)c1ccc(Br)cc1)NCCc1ccc(Cl)cc1

>  <measured-value>
28% (inactive)

$$$$
>  <molecule>
COc1ccc(Cl)cc1NC(=O)CCS(=O)(=O)c1cc2c(cc1C)NC(=O)CO2

>  <measured-value>
1.91% (inactive)

$$$$
>  <molecule>
Cc1ccccc1CN1CCN(CC(=O)NCc2ccccn2)C1=O

>  <measured-value>
0.03% (inactive)

$$$$
>  <molecule>
COc1ccc(NC(=O)CN(C)C(=O)c2cc(-c3ccc(C)o3)nc3ccccc23)cc1

>  <measured-value>
1.02% (inactive)

$$$$

Could you now consider this next molecule?
Field request: aptamer displacement | item: Cc1ccc(C(CNC(=O)Nc2cccc(C)c2)N2CCN(C)CC2)cc1 (stereo not drawn)
-1.91% (inactive)
